These measurements were taken from PubChem BioAssay AID1745844.

- Test system: rodent lifetime carcinogenesis bioassay, tumor incidence TD50
- Assay info: carcinogenic potency in animals, long-term in vivo studies, CPDB compilation (AID 1745844)
- Condition: mouse; strain B6C3F1; males; inhaled; site: all sites + forestomach + Harderian gland + lung; lesion: hemangioma + hemangiosarcoma + squamous-cell carcinoma + squamous-cell papilloma + adenoma + adenoma, bilateral + carcinoma + alveolar; dosed 104 weeks; study length 104 weeks
Quantity kind: TD50 (mg/kg/day)
Answer in mg/kg/day, number only, no unit symbol.

Incoming: Param item = C=CC(=C)Cl ; retrieve measured TD50.
Outgoing: 8.68

* * *

- Tested on: rodent lifetime carcinogenesis bioassay, tumor incidence TD50
- Assay info: carcinogenic potency in animals, long-term in vivo studies, CPDB compilation (AID 1745844)
- Condition: mouse; strain B6C3F1; females; inhaled; site: lung; lesion: carcinoma; dosed 52 weeks; study length 104 weeks
Quantity kind: TD50 (mg/kg/day)
Answer in mg/kg/day, number only, no unit symbol.

Incoming: Param item = ClCCl ; retrieve measured TD50.
Outgoing: 952
